Exercise: state measured pIC50 for each of the molecules provided.
- study system: CK2α’ (full-length, NanoLuc fusion) (Homo sapiens, UniProt P19784)
- Sequence (P19784 whole entry, the tested form may be a part): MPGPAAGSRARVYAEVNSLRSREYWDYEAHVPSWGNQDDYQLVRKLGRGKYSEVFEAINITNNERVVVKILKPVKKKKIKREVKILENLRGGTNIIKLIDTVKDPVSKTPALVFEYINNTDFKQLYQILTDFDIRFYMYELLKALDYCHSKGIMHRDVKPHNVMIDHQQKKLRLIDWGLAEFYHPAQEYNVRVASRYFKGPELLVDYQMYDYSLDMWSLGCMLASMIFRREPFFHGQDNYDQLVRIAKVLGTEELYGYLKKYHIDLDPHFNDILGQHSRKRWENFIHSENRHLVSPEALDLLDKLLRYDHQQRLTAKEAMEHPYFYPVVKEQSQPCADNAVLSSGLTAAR
- assay procedure: NanoBRET tracer displacement, intact HEK293T
- Format: cell-based
- condition description: intact cells, […] h, […] °C, tracer competition
To interpret pIC50, take it as minus log10 of a concentration measured in moles per litre.

Q: Form: Entry = O=C(O)c1ccc2cc1OCCOCCNc1ccn3ncc-2c3n1 [compound 34] | System = CK2α’ (full-length, NanoLuc fusion) (Homo sapiens, UniProt P19784) | pIC50 = ____
Result: 4.79

Q: Form: Entry = CC(C)(C)OC(=O)N1CCOCCOc2cc(ccc2C(=O)O)-c2cnn3ccc1nc23 [compound 32] | System = CK2α’ (full-length, NanoLuc fusion) (Homo sapiens, UniProt P19784) | pIC50 = ____
Result: 5.13
